Data provenance is the DeepSol protein solubility set.

Assay: soluble on expression in E. coli; label from the status in PepcDB or PDB records
Measured Metric: soluble on expression in E. coli

Sequence Input: MAHHHHHHMSCRRFHKVLQANEEENEHAREAFLASWRSEYQQFLQSKLAALVWHVEHHCRSHVTPQTATSMACGEVPRMKVATTAPNSTTTASTNSNSAMMAEDAEQHDACNVLAHKQNRRTTLPSHFFLEQTPTSMPFYPREFIVEKEAQMFRQTNSPFTVGETPHGSQHSRTEINASTATVVPLPSVHKKETADRNSEKDDDRTAILAVSPSPRQISMHSPSQIEDDGSLDASLSPAATVAVTNVLTRTPGPAVQLQKMLPTEEVSKANLRKTIARLYSESVDTRSSWSDTWSQKKQRAASLLPPPSSASHMMHLKTMHVSHGTPCENMEASRNDMLSKKQLICELRRLYGLEDER
soluble on expression in E. coli: soluble
//
Sequence Input: GMVRYPLEPVLSIKKDRVDRAEKVVKEKRRLLELEQEKLRERESERDKVKNHYMQKIRQLREQLDDGTTSDAILKMKAYIKVVAIQLSEEEEKVNKQKENVLAASKELERAEVELTKRRKEEEKTRLHKEEWMKEALKEEARQEEKEQDEMGQLLHQLHKQKQRESGEN
soluble on expression in E. coli: soluble
//
Sequence Input: MGSDKIHHHHHHMLANQNVRARVQNHQLFSSLNEAQLAKIFATASLLHIKPEQMLFHQGELASRFYFVLAGTLQLFRTNVQGQMKVIEVVRSGCTFAEALMFNKQTRFPVSAQSVSECALVSFDSETYLQLLKHNPDACIAIMADLSVRIRKHINEVEMVSLQNAQHRLLLFLLRKMTVVGDNQGEITLDIPKRLLASRLSIQPETFSRLIKKMSQTGLIAESHGVIRIPDVALLYASTDISITQPTFNQQGPSSAIPLVCN
soluble on expression in E. coli: not soluble
//
Sequence Input: SNAMKKTLILGATPETNRYAYLAAERLKSHGHEFIPVGRKKGEVLGKTIINERPVIEGVDTVTLYINPQNQLSEYNYILSLKPKRVIFNPGTENEELEEILSENGIEPVIGCTLVMLSAGTF
soluble on expression in E. coli: soluble
//
Sequence Input: MIKKWLSVALISTAAMMPHTTFASDTLLQKAQQENRQQQTHNASRESGFKKTEQELQAIKNKLVAERAALQAEADTLSVTFSENEAELAQLEEKLRLETGSLGELFGVVRQNAKELESELKHAVTGVDANSYQKDIEAIVAAKSLPTLKQLQAMWRSMEEQVTASGELAKVSFTLLDGEGKEQTVNGVRLGAMALLDDNGYVKWNGQRGDAVNYLRQPENGPTASAFTNGELDSLVIDPSRGILLEQLANSPTLKDRLNAGGVVGQ
soluble on expression in E. coli: not soluble
//
Sequence Input: MKETNGIPARLRQVAVIRDGPRQETVVLEADGMYYIKGETVYLQFAEENELGRVNNIVKIAPDEVTVLRSGAVEMRQTSRRRQETSGHYGTVFGRWALAAKTSSMEFHYDERRKKGRLFLSYELMLGDERSGRHTLTLTFKGV
soluble on expression in E. coli: not soluble

Now consider the entry below.
### Prompt Look up and report measured soluble on expression in E. coli for this entry: MKLTILRLEHFSAQDQIDLGKIWPEYSASSLSVDETHRIYAARFNERLLGAVRVTLSGTQGALDSLRVREITRRRGVGQYLVEEVIRDNPNVSSWWMADVGVEDRSVMAAFMQALGFTAQHDGWEKR
### Response not soluble
